For each record, write down the corresponding SK-Br-3 pHER3 IC50.
Molecular target: human HER3 endogenously expressed on human cancer cells (SK-Br-3, BT-474, MCF7) (human, UniProt P21860 20-1342)
Assay: cell-based or functional assay
# number only, unit pM dropped from output

[ask] Looking for the measured SK-Br-3 pHER3 IC50 of MOR12920 (antibody, human IgG1, lambda, V domains shown) VH: QVQLVQSGAEVKKPGASVKVSCKASGYTFTGYYMHWVRQAPGQGLEWMGDIEPYHGKPLYAQKFQGRVTMTRDTSISTAYMELSRLRSEDTAVYYCARGSFYTRDSYFDVWGQGTLVTVSS VL: DIALTQPASVSGSPGQSITISCTGTSSDVGTYNQVSWYQQHPGNAPKLMIYGVSKRPSGVSNRFSGSKSGNTASLTISGLQAEDEADYYCSSRDLIGHYVFGGGTKLTVLG , can you help?
[reply] 851

[ask] Likewise for MOR13659 (antibody, human IgG1, lambda, V domains shown) VH: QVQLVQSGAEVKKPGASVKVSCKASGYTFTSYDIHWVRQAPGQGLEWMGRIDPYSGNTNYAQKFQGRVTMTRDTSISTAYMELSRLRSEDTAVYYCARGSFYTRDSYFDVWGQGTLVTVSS VL: DIALTQPASVSGSPGQSITISCTGTSSDVGTYNQVSWYQQHPGKAPKLMIYGVSKRPSGVSNRFSGSKSGNTASLTISGLQAEDEADYYCGSRTSHNWVFGGGTKLTVLG ?
[reply] 277

[ask] Another binder to look at: MOR14538 (antibody, human IgG1, lambda, V domains shown, Tested as IgG) VH: QVQLVQSGAEVKKPGASVKVSCKASGYTFTSYDIHWVRQAPGQGLEWMGRIDPYSGNTNYAQKFQGRVTMTRDTSISTAYMELSRLRSDDTAVYYCARGSFYTRDSYFDVWGQGTLVTVSS VL: QSALTQPASVSGSPGQSITISCTGTSSDVGTYNQVSWYQQHPGKAPKLMIYGVSKRPSGVSNRFSGSKSGNTASLTISGLQAEDEADYYCASADHSYHTVFGGGTKLTVLG
[reply] 263
